Each recorded value in this set is attributed to patent US20240360075A1.

Entries and their measured pEC50 follow.
TARGET DESC: TRPM8 (Homo sapiens)
Construct: purchased Eurofins (Cerep) item #3316
EXPERIMENT NOTES: TRPM8 Human Transient Potential Ion Channel Cell Based Agonist Calcium Flux Assay (Eurofins Cerep item #3316)
RUN PARAMETERS: room temperature
pEC50: −log10 of the molar value.

Known pEC50 results, listed for orientation:
| MOLECULE | TARGET DESC | pEC50 |
| --- | --- | --- |
| CC(C)[C@@H]1CC[C@@H](C)C[C@H]1C(=O)Nc1ccnc(CN(C)C)c1 | TRPM8 (Homo sapiens) | > 5.30 |
| CC(C)[C@@H]1CC[C@@H](C)C[C@H]1C(=O)Nc1ccc(C2(CCO)COC2)cc1 | TRPM8 (Homo sapiens) | > 6.30 |
| COC1CC(NC(=O)[C@@H]2C[C@H](C)CC[C@H]2C(C)C)C1 (some centres unmarked) | TRPM8 (Homo sapiens) | > 6.30 |
| COc1ccc(NC(=O)c2cccc(C(F)(F)F)c2)cc1 | TRPM8 (Homo sapiens) | < 5.00 |
| COC12CCC(NC(=O)[C@@H]3C[C@H](C)CC[C@H]3C(C)C)(CC1)CC2 | TRPM8 (Homo sapiens) | > 7.00 |
| CC(C)[C@@H]1CC[C@@H](C)C[C@H]1C(=O)NC12CC(C#N)(C1)C2 | TRPM8 (Homo sapiens) | > 5.30 |
| COc1ccc(CNC(=O)[C@@H]2C[C@H](C)CC[C@H]2C(C)C)cc1 | TRPM8 (Homo sapiens) | > 5.30 |
| CC(C)[C@@H]1CC[C@@H](C)C[C@H]1C(=O)Nc1cccc(C2(O)COC2)c1 | TRPM8 (Homo sapiens) | > 6.30 |

# pEC50 lookup, item `CC(C)[C@@H]1CC[C@@H](C)C[C@H]1C(=O)Nc1ccc(Cl)cn1`
> 5.30

# pEC50 lookup, item `COCCOc1ccc(NC(=O)[C@@H]2C[C@H](C)CC[C@H]2C(C)C)cc1`
> 6.30

# pEC50 lookup, item `COCC12CC(NC(=O)[C@@H]3C[C@H](C)CC[C@H]3C(C)C)(C1)C2`
> 7.00

# pEC50 lookup, item `COc1ccc(NC(=O)[C@@H]2C[C@H](C)CC[C@H]2C(C)=O)cc1`
< 5.00

# pEC50 lookup, item `C=C(C)[C@@H]1CC[C@@H](C)C[C@H]1C(=O)Nc1ccc(OC)cc1`
> 6.30

# pEC50 lookup, item `CC(C)[C@@H]1CC[C@@H](C)C[C@H]1C(=O)Nc1ccc(CO)cc1`
> 7.00

# pEC50 lookup, item `CC(C)[C@@H]1CC[C@@H](C)C[C@H]1C(=O)Nc1ccc2c(c1)B(O)OC2`
> 7.00

# pEC50 lookup, item `CC(C)[C@@H]1CC[C@@H](C)C[C@H]1C(=O)Nc1ccc(B2OC(C)(C)C(C)(C)O2)cc1`
> 6.30

# pEC50 lookup, item `CC(C)[C@@H]1CC[C@@H](C)C[C@H]1C(=O)Nc1ccccc1CN(C)C`
> 6.00

* * *

TARGET DESC: TRPM8 (Homo sapiens)
Construct: purchased Eurofins (Cerep) item #3316
EXPERIMENT NOTES: TRPM8 Human Transient Potential Ion Channel Cell Based Agonist Calcium Flux Assay (Eurofins Cerep item #3316)
RUN PARAMETERS: room temperature
OUTCOME MEASURE: EC50

Known EC50 results, listed for orientation:
| COMPOUND | EC50 |
| --- | --- |
| COCCOCCOc1cccc(NC(=O)[C@@H]2C[C@H](C)CC[C@H]2C(C)C)c1 | < 5000 nM |
| COC(=O)CC12CC(NC(=O)[C@@H]3C[C@H](C)CC[C@H]3C(C)C)(C1)C2 | < 1000 nM |
| COC(=O)C12CCC(NC(=O)[C@@H]3C[C@H](C)CC[C@H]3C(C)C)(CC1)CC2 | < 1000 nM |
| CC(C)[C@@H]1CC[C@@H](C)C[C@H]1C(=O)NC12CC(NC(=O)CO)(C1)C2 | < 500 nM |
| COc1ccc(NC(=O)[C@H]2CCC[C@@H](O)C2)cc1 | > 10000 nM |
| CCOc1ccc(NC(=O)[C@@H]2C[C@H](C)CC[C@H]2C(C)C)cn1 | < 100 nM |

We next turn to a different compound, shown below.
# EC50 lookup, item `COCCO[C@H]1CC[C@H](NC(=O)[C@@H]2C[C@H](C)CC[C@H]2C(C)C)CC1`
< 1000 nM

* * *

TARGET DESC: TRPM8 (Homo sapiens)
Construct: purchased Eurofins (Cerep) item #3316
EXPERIMENT NOTES: TRPM8 Human Transient Potential Ion Channel Cell Based Agonist Calcium Flux Assay (Eurofins Cerep item #3316)
RUN PARAMETERS: room temperature
Entries and their measured EC50 follow.

Known EC50 results, listed for orientation:
| COMPOUND | EC50 |
| --- | --- |
| CC(C)[C@@H]1CC[C@@H](C)C[C@H]1C(=O)NC1CCC(S(C)(=O)=O)C1 (some centres unmarked) | < 10000 nM |
| COc1ccc(NC(=O)[C@@H]2C[C@H](C)CC[C@H]2C(C)C)nc1Cl | < 5000 nM |

# EC50 lookup, item `COC12CCC(NC(=O)[C@H]3CCC[C@@H](N)C3)(CC1)CC2`
> 10000 nM

# EC50 lookup, item `CNC(=O)c1cc(OC)ccc1NC(=O)[C@@H]1C[C@H](C)CC[C@H]1C(C)C`
< 100 nM

# EC50 lookup, item `CC(C)[C@@H]1CC[C@@H](C)C[C@H]1C(=O)NC12CCC(C(F)(F)F)(CC1)C2`
< 1000 nM

# EC50 lookup, item `CC(C)[C@@H]1CC[C@@H](C)C[C@H]1C(=O)Nc1ccccc1CCN`
< 100 nM

# EC50 lookup, item `COc1ncc(NC(=O)[C@@H]2C[C@H](C)CC[C@H]2C(C)C)cc1C`
< 5000 nM

# EC50 lookup, item `COC(=O)C12CC(NC(=O)[C@@H]3C[C@H](C)CC[C@H]3C(C)C)(C1)C2`
< 100 nM

* * *

TARGET DESC: TRPM8 (Homo sapiens, UniProt Q7Z2W7)
Construct: purchased Eurofins (Cerep) item #3316
Sequence (Q7Z2W7 whole entry): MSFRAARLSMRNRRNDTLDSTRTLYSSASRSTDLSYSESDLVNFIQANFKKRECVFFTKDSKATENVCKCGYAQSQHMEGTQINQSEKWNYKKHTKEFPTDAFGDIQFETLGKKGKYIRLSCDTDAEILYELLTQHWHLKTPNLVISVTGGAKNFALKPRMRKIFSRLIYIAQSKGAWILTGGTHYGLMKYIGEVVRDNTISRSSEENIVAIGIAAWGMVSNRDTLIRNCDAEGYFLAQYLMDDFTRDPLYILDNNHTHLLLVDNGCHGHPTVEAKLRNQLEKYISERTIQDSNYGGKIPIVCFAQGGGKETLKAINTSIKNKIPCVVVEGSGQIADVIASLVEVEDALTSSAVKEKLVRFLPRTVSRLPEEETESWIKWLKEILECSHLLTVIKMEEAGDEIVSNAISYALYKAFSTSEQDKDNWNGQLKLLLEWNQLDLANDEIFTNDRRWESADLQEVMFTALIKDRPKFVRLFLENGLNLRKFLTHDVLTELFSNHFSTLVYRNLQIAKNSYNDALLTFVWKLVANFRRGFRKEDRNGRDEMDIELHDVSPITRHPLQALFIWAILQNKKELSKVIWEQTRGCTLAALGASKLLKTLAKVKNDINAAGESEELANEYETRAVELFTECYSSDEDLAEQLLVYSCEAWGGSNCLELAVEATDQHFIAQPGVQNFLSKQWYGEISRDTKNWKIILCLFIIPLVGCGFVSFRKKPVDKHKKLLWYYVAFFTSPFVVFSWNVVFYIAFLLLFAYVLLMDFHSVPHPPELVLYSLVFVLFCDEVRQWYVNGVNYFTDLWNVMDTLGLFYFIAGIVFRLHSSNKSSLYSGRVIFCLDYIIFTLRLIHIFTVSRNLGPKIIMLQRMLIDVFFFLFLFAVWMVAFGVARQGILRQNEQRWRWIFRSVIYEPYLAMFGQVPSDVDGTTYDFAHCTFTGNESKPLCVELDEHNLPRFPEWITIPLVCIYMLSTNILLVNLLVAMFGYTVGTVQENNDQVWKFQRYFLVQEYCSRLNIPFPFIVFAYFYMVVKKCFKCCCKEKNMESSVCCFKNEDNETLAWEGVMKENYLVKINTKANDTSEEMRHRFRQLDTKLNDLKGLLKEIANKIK
EXPERIMENT NOTES: TRPM8 Human Transient Potential Ion Channel Cell Based Agonist Calcium Flux Assay (Eurofins Cerep item #3316)
RUN PARAMETERS: room temperature
pEC50: −log10 of the molar value.
OUTCOME MEASURE: pEC50

Known pEC50 results, listed for orientation:
| COMPOUND | pEC50 |
| --- | --- |
| COC(=O)NC12CC(NC(=O)[C@@H]3C[C@H](C)CC[C@H]3C(C)C)(C1)C2 [Compound 37] | > 6.00 |
| CC(C)[C@@H]1CC[C@@H](C)C[C@H]1C(=O)Nc1ccc(N2CCN(C)CC2)cc1 [Compound 2] | > 6.30 |
| CC(C)[C@@H]1CC[C@@H](C)C[C@H]1C(=O)Nc1ccc(N2CCOCC2)nc1 [Compound 73] | > 7.00 |
| CC(C)[C@@H]1CC[C@@H](C)C[C@H]1C(=O)NC12CC(F)(C1)C2 [Compound 29] | > 6.00 |

# pEC50 lookup, item COC12CC(NC(=O)[C@@H]3C[C@H](C)CC[C@H]3C(C)C)(C1)C2 [Compound 25]
> 7.00

# pEC50 lookup, item C#CCNC(=O)[C@@H]1C[C@H](C)CC[C@H]1C(C)C [Compound 101]
> 5.30

# pEC50 lookup, item COc1ccc(NC(=O)[C@@H]2C[C@H](C)CC[C@H]2C(C)C)c(F)n1 [Compound 81]
> 7.00

# pEC50 lookup, item CC(C)[C@@H]1CC[C@@H](C)C[C@H]1C(=O)Nc1ccc(S(C)(=O)=O)nc1 [Compound 84]
> 7.00

* * *

TARGET DESC: TRPM8 (Homo sapiens)
Construct: purchased Eurofins (Cerep) item #3316
EXPERIMENT NOTES: TRPM8 Human Transient Potential Ion Channel Cell Based Agonist Calcium Flux Assay (Eurofins Cerep item #3316)
RUN PARAMETERS: room temperature
Entries and their measured EC50 follow.

| COMPOUND | TARGET DESC | OUTCOME MEASURE | RESULT |
| --- | --- | --- | --- |
| COc1ccc(NC(=O)[C@@H]2C[C@H](C)CC[C@H]2C(C)C)cc1 | TRPM8 (Homo sapiens) | EC50 | 24 nM |
| CC(C)[C@@H]1CC[C@@H](C)C[C@H]1C(=O)NC12CCC(CO)(CC1)C2 | TRPM8 (Homo sapiens) | EC50 | < 500 nM |
| CC(C)[C@@H]1CC[C@@H](C)C[C@H]1C(=O)NCC#N | TRPM8 (Homo sapiens) | EC50 | > 10000 nM |
| CC(C)[C@@H]1CC[C@@H](C)C[C@H]1C(=O)NC1CC2(CCCO2)C1 (some centres unmarked) | TRPM8 (Homo sapiens) | EC50 | < 1000 nM |
| CC(C)[C@@H]1CC[C@@H](C)C[C@H]1C(=O)Nc1ccc(N2CCOCC2)cc1 | TRPM8 (Homo sapiens) | EC50 | < 100 nM |

# EC50 lookup, item `CC(C)[C@@H]1CC[C@@H](C)C[C@H]1C(=O)N[C@H]1CC[C@H](N)C1`
< 1000 nM

# EC50 lookup, item CC(C)[C@@H]1CC[C@@H](C)C[C@H]1C(=O)NCC1CC1(F)F (some centres unmarked)
< 1000 nM

# EC50 lookup, item `CC(C)[C@@H]1CC[C@@H](C)C[C@H]1C(=O)NC1CCN(C)CC1`
> 10000 nM
